Data credit: ChEMBL document CHEMBL4152188

system: Escherichia coli; assay: Antibacterial activity against Escherichia coli isolate 210737 after 18 hrs by CLSI broth microdilution method; type: functional; settings: isolate 210737, 18 h
# MIC annotations
Give the quantity in mg/L, number only.

Compound: CC(C)C(O/N=C(\C(=O)N[C@@H]1C(=O)N(S(=O)(=O)O)[C@@H]1CN1CCNC1=O)c1csc(N)n1)c1cc(=O)c(O)cn1O (stereo partly drawn)
MIC (mg/L): 0.5

With those in mind, consider the next compound.
Consider the compound CC(C)C(O/N=C(\C(=O)N[C@@H]1C(=O)N(S(=O)(=O)O)[C@@H]1Cn1cc(COCc2cc(=O)c(O)cn2O)nn1)c1csc(N)n1)c1cc(=O)c(O)cn1O (stereo partly drawn) tested on Escherichia coli; state its MIC. 16

====

tested on: Klebsiella pneumoniae; assay: Selectivity index, ratio of MIC for against KPC-2 producing Klebsiella pneumoniae isolate 212423 to MIC for against KPC-2 producing Klebsiella pneumoniae isolate 212423 in presence of BPL; type: functional
# Selectivity Index annotations
Output: the number by itself.

Here's what some known entries look like.
Molecule: CC(C)C(O/N=C(\C(=O)N[C@@H]1C(=O)N(S(=O)(=O)O)[C@@H]1CN1CCNC1=O)c1csc(N)n1)c1cc(=O)c(O)cn1O (some centres undefined)
Measured Target: Klebsiella pneumoniae
Selectivity Index: 4

Molecule: CC(C)C(O/N=C(\C(=O)N[C@@H]1C(=O)N(S(=O)(=O)O)[C@@H]1CSc1nc(=O)c(O)nn1C)c1csc(N)n1)c1cc(=O)c(O)cn1O (some centres undefined)
Measured Target: Klebsiella pneumoniae
Selectivity Index: 2

Molecule: CC(C)C(O/N=C(\C(=O)N[C@@H]1C(=O)N(S(=O)(=O)O)[C@@H]1CCl)c1csc(N)n1)c1cc(=O)c(O)cn1O (some centres undefined)
Measured Target: Klebsiella pneumoniae
Selectivity Index: 1

Molecule: Cc1nnc(SC[C@@H]2[C@H](NC(=O)/C(=N\OC(c3cc(=O)c(O)cn3O)C(C)C)c3csc(N)n3)C(=O)N2S(=O)(=O)O)s1 (some centres undefined)
Measured Target: Klebsiella pneumoniae
Selectivity Index: 2

Consider the molecule CC(C)C(O/N=C(\C(=O)N[C@@H]1C(=O)N(S(=O)(=O)O)[C@@H]1COC(=O)CNC(=O)c1cc(=O)c(O)c[nH]1)c1csc(N)n1)c1cc(=O)c(O)cn1O (some centres undefined) tested on Klebsiella pneumoniae; state its Selectivity Index. 4

Consider the molecule CC(C)C(O/N=C(\C(=O)N[C@@H]1C(=O)N(S(=O)(=O)O)C12CCCC2)c1csc(N)n1)c1cc(=O)c(O)cn1O (some centres undefined) tested on Klebsiella pneumoniae; state its Selectivity Index. 4

Consider the molecule COC[C@@H]1[C@H](NC(=O)/C(=N\OC(c2cc(=O)c(O)cn2O)C(C)C)c2csc(N)n2)C(=O)N1S(=O)(=O)O (some centres undefined) tested on Klebsiella pneumoniae; state its Selectivity Index. 2

Consider the molecule CC(C)C(O/N=C(\C(=O)NC1C(=O)N(S(=O)(=O)O)C1(CF)CF)c1csc(N)n1)c1cc(=O)c(O)cn1O (centres undefined) tested on Klebsiella pneumoniae; state its Selectivity Index. 8

Consider the molecule CC(C)C(O/N=C(\C(=O)N[C@@H]1C(=O)N(S(=O)(=O)O)[C@@H]1CSc1nnnn1C)c1csc(N)n1)c1cc(=O)c(O)cn1O (some centres undefined) tested on Klebsiella pneumoniae; state its Selectivity Index. 2
